src = a melting point compilation (Tetko et al.; mined from patent text by program, amines drawn as free bases though some values may be those of a salt)

In this section we review reported melting point values for a set of molecules.

Cc1cc(C(=O)N2CCCCC2)ccc1[N+](=O)[O-] | 71.7 to 72.2 °C
Cc1cccc(Nn2c(-c3ccccc3)c(C(C)C)[nH]c2=S)c1 | 220 to 222 °C
CCOC(=O)c1cnn2c(-c3ccccc3C(F)(F)F)ccnc12 | 148 to 149 °C
CC(C)c1cccc(C(C)C)c1NC(=O)NCCN1CCN(CCSc2nc3ccccc3o2)CC1 | 152 to 153 °C
C=Cc1cc(Cl)cc2[nH]c(=O)c(-c3ccccc3)c(O)c12 | 240 to 244 °C
Nc1ccc(Oc2ccccc2Oc2ccc(N)cc2)cc1 | 135 to 136 °C
CC1(C)Oc2ccc(-c3nnnn3CCCC(=O)O)cc2[C@@H](Oc2ccc(O)nn2)[C@]1(C)O | 116 to 126 °C
O=C(NCc1ccncc1)N(c1ccccc1)c1ccccc1 | 174 °C
O=C(O)c1cccc(-c2ccc(F)c3cc(Cc4cccc(C(F)(F)F)c4)oc23)c1 | 172 to 173 °C

Input: Need melting point, item O=c1ncc(Cl)cn1CC=CCl
Output: 102 to 104 °C
